These measurements were taken from the DeepSol protein solubility set.

# protocol.summary: soluble on expression in E. coli; label from the status in PepcDB or PDB records
measurement.type: soluble on expression in E. coli

See these solved cases before continuing.
construct.sequence	assay.result
MKSLEEILQYNEKFVEEKKYEEFVAGKFPNKKMVIISCMDTRLVELLPKAMNMRNGDVKIIKVAGAVISHPFGSIMRSILVAVYELGADEVCVVGHHDCGMAKIQASSTIEKMKERGITEEKLDMLRYSGIDLEQFLRGFSSVEESVEHSVSVLRNHPLLPEEVPVHGLVIDPDTGKLDLVVNGYDN	not soluble
MLTMKFLVPVDFSEITNPLLRTVKRVGEKVDCEVHLLHVIPPVLYLPYPETMGVSVIDIELLEKLEDEKKAEAKEKLKALEEFLKPVKARSHVDVGDPADVILDYEEKLNPDMVFLGGHKKGLIEKLLIGSTTEKVVKHGKKSDFVIKGSEVEFRKKVVIAYDFSKTAQKTAEFALKFLKNFKVSVEIVHVHESIEMPLIEKLKHKIEKEFSEEKKKILNELKGRFEEEGIKTEVKFLEGEDAVDVISSYVNETPEVELLIIGSKGLSGLKKLILGRTATKLLGKVNKPILIYKVQE	soluble
RPNDIYVNMKTDFKAQLARCQKLLDGGARGQNACSEIYIHGLGLAINRAINIALQLQAGSFGSLQVAANTSTVELVDELEPETDTREPLTRIRNNSAIHIRVFRVTPK	not soluble
GPGSMAETRKEEWSEPEVPGGRSEVVAGIKRRREKLELYQSASHKMKALMMNSAGIRSGLGANNELPVNPIWMKFPTRCVKPIHSVEEMREKLHYFSHSDDVMVVRYHQENCTACNALDKTFEFLCHQSADRYPNLKFYEVSKDATPQLTRNLVRYPQVKGFSGGHWTDLEFKPPAEFREELYSGVEREVTRRKREGQPVTALEAEEMYYSSAGPAMAQVLEESVVKFYCKAQARLHNYWKQVSVRRAWFFRKFVEPKVDDQVRDEWRLKSVFGEKLSYGPEPQMEEF	not soluble
MTQPEAVFFDCDGTLVDSEVICSRAYVHMFQEFGITLDLAEIFKRFKGVKLYEIIDTINAEYGVNLQKATLEPIYRAEVARLFDSELEVIPGAQALLDAVSVPMCVVSNGPVSKMQHSLGRTGLLRHFTDRLYSGYDIQRWKPDPALMFHAAEAMQVKAENCILVDDSSAGAQSGIAAGMEVFYFCADPHNQPIDHPKVTTFTDLAELPALWQARGWDITR	not soluble
MGSDKIHHHHHHMNKIINNILNTCKQYTYILPHKLLRQYIAHYTISIPDTSIKENLTLIPDASGCMIFKFDKKGIESAFWGATTKTTIVKNDIENVLFRVFVEFRPGGVYYLTGLSQRESTDLKISLEDFNTLFSLEVNSIFERTSTIKELVEQLDMLFLSYLLKSNIVDMTIPILENARKQNSIMSVKNISQISCYSERHLNRIFNNSLGMSVKSYLRLLRINLVLQEIQNNKIPFATLAQDIGYYDQSHFINDFKSICGVNPTTYIKNLSDFYNEKYKF	not soluble

What value of soluble on expression in E. coli has been reported for the following sequence? MIITGSFGNGHLQVTQSVVNQFKEMNLDNLTVIEHDLFLEAHPILTSICKKWYINSFKYFRNMYKAFYYSQPDQLDKCFYKYYGLNKLMNLLLKEKPDLILLTFPTPVMSVLTEQFDMNIPIATVMTDYRMQKNWITPFSQRYYLATEELKDEFASIGIPKDKLKVTGIPISDKFELEHHHHHH
soluble
